System: HIV-1
Conditions: Table XI
RECORDED METRIC: pEC50
// pEC50 here means minus log10 of the molar concentration (mol/L)

Cl.Cl.Cn1cc(NC(=O)c2cc(NC(=O)/C=C\C(=O)Nc3cc(C(=O)Nc4cc(C(=O)NCCC(=N)N)n(C)c4)n(C)c3)cn2C)cc1C(=O)NCCC(=N)N [Compound 22b, dihydrochloride] = 6.46
Cl.Cl.Cn1cc(NC(=O)c2cc(NC(=O)[C@@H]3CC[C@H]3C(=O)Nc3cc(C(=O)Nc4cc(C(=O)NCCC(=N)N)n(C)c4)n(C)c3)cn2C)cc1C(=O)NCCC(=N)N (relative stereo) [Compound 25b, dihydrochloride] = 6.38

Request body: readout pEC50, system HIV-1, query Cl.Cl.Cn1cc(NC(=O)c2cc(NC(=O)c3ccc(C(=O)Nc4cc(C(=O)Nc5cc(C(=O)NCCC(=N)N)n(C)c5)n(C)c4)cc3)cn2C)cc1C(=O)NCCC(=N)N [Compound 19b, dihydrochloride] . Return the value. 5.92
